Source: ChEMBL document CHEMBL1149371

Molecular target: tRNA
Test: Binding affinity to tRNA
MEASURED PROPERTY: Kd (nM)
Your answer is read as nM, so omit the unit and give the number.

Some compounds with known Kd results, for comparison:
[
  {
    "SMILES INPUT": "NC[C@@H]1O[C@H](O[C@H]2[C@@H](O)[C@H](O[C@@H]3[C@@H](O)[C@H](N)C[C@H](N)[C@H]3O[C@H]3O[C@H](CN)[C@@H](O)[C@H](O)[C@H]3N)O[C@@H]2CSCCCCCCSCC(=O)NCCN(CC(=O)NCCN(CC(N)=O)C(=O)Cn2cnc3c(N)ncnc32)C(=O)Cn2cnc3c(N)ncnc32)[C@H](N)[C@@H](O)[C@@H]1O",
    "TEST VALUE": 410
  },
  {
    "SMILES INPUT": "NC[C@@H]1O[C@H](O[C@H]2[C@@H](O)[C@H](O[C@@H]3[C@@H](O)[C@H](N)C[C@H](N)[C@H]3O[C@H]3O[C@H](CN)[C@@H](O)[C@H](O)[C@H]3N)O[C@@H]2CSCCCCCCSCC(=O)NCCN(CC(=O)NCCN(CC(N)=O)C(=O)Cn2cnc3c(O)nc(N)nc32)C(=O)Cn2cnc3c(O)nc(N)nc32)[C@H](N)[C@@H](O)[C@@H]1O",
    "TEST VALUE": 210
  }
]

Query string: Quick one: Kd for Cc1cn(CC(=O)N(CCNC(=O)CSCCCCCCSC[C@H]2O[C@@H](O[C@@H]3[C@@H](O)[C@H](N)C[C@H](N)[C@H]3O[C@H]3O[C@H](CN)[C@@H](O)[C@H](O)[C@H]3N)[C@H](O)[C@@H]2O[C@H]2O[C@@H](CN)[C@@H](O)[C@H](O)[C@H]2N)CC(=O)NCCN(CC(N)=O)C(=O)Cn2cnc3c(N)ncnc32)c(=O)[nH]c1=O ?
Result string: 230

====

Target: Rev responsive element (RRE) RNA
Assay: Binding affinity to Rev response element RNA
Format: nucleic-acid assay
MEASURED PROPERTY: pKd
By convention, pKd is the negative base-10 log of a molar concentration.

Some molecules with recorded pKd:
[
  {
    "SMILES INPUT": "NC[C@@H]1O[C@H](O[C@H]2[C@@H](O)[C@H](O[C@@H]3[C@@H](O)[C@H](N)C[C@H](N)[C@H]3O[C@H]3O[C@H](CN)[C@@H](O)[C@H](O)[C@H]3N)O[C@@H]2CSCCCCCCSCC(=O)NCCN(CC(=O)NCCN(CC(N)=O)C(=O)Cn2ccc(N)nc2=O)C(=O)Cn2cnc3c(O)nc(N)nc32)[C@H](N)[C@@H](O)[C@@H]1O",
    "pKd": 6.62
  },
  {
    "SMILES INPUT": "NC[C@@H]1O[C@H](O[C@H]2[C@@H](O)[C@H](O[C@@H]3[C@@H](O)[C@H](N)C[C@H](N)[C@H]3O[C@H]3O[C@H](CN)[C@@H](O)[C@H](O)[C@H]3N)O[C@@H]2CSCCCCCCSCC(=O)NCCN(CC(=O)NCCN(CC(N)=O)C(=O)Cn2cnc3c(N)ncnc32)C(=O)Cn2ccc(N)nc2=O)[C@H](N)[C@@H](O)[C@@H]1O",
    "pKd": 6.89
  },
  {
    "SMILES INPUT": "NC[C@@H]1O[C@H](O[C@H]2[C@@H](O)[C@H](O[C@@H]3[C@@H](O)[C@H](N)C[C@H](N)[C@H]3O[C@H]3O[C@H](CN)[C@@H](O)[C@H](O)[C@H]3N)O[C@@H]2CSCCCCCCSCC(=O)NCCN(CC(=O)NCCN(CC(N)=O)C(=O)Cn2cnc3c(O)nc(N)nc32)C(=O)Cn2cnc3c(N)ncnc32)[C@H](N)[C@@H](O)[C@@H]1O",
    "pKd": 7.42
  }
]

// moving on: another record for pKd
Query string: Requested read-out pKd, target or system Rev responsive element (RRE) RNA, entry NC[C@@H]1O[C@H](O[C@H]2[C@@H](O)[C@H](O[C@@H]3[C@@H](O)[C@H](N)C[C@H](N)[C@H]3O[C@H]3O[C@H](CN)[C@@H](O)[C@H](O)[C@H]3N)O[C@@H]2CSCCCCCCSCC(=O)NCCN(CC(=O)NCCN(CC(N)=O)C(=O)Cn2ccc(N)nc2=O)C(=O)Cn2ccc(N)nc2=O)[C@H](N)[C@@H](O)[C@@H]1O
Result string: 6.37

====

The reader will find reported pKd values listed item by item below.
Target: Rev responsive element (RRE) RNA
Test: Binding affinity to Rev response element RNA
Format: nucleic-acid assay
The read-out pKd is expressed as -log10 of concentration in moles per litre.

Query string: Query: pKd; subject: CC(=O)N(CCNC(=O)CSCCCCCCSC[C@H]1O[C@@H](O[C@@H]2[C@@H](O)[C@H](N)C[C@H](N)[C@H]2O[C@H]2O[C@H](CN)[C@@H](O)[C@H](O)[C@H]2N)[C@H](O)[C@@H]1O[C@H]1O[C@@H](CN)[C@@H](O)[C@H](O)[C@H]1N)CC(=O)NCCN(CC(N)=O)C(=O)Cn1cc(C)c(=O)[nH]c1=O
Result string: 6.57

Query string: Item Cc1cn(CC(=O)N(CCNC(=O)CSCCCCCCSC[C@H]2O[C@@H](O[C@@H]3[C@@H](O)[C@H](N)C[C@H](N)[C@H]3O[C@H]3O[C@H](CN)[C@@H](O)[C@H](O)[C@H]3N)[C@H](O)[C@@H]2O[C@H]2O[C@@H](CN)[C@@H](O)[C@H](O)[C@H]2N)CC(=O)NCCN(CC(N)=O)C(=O)Cn2cnc3c(N)ncnc32)c(=O)[nH]c1=O has what recorded pKd?
Result string: 7.15

Query string: Report pKd for Cc1cn(CC(=O)N(CCNC(=O)CN(CCNC(=O)CSCCCCCCSC[C@H]2O[C@@H](O[C@@H]3[C@@H](O)[C@H](N)C[C@H](N)[C@H]3O[C@H]3O[C@H](CN)[C@@H](O)[C@H](O)[C@H]3N)[C@H](O)[C@@H]2O[C@H]2O[C@@H](CN)[C@@H](O)[C@H](O)[C@H]2N)C(=O)Cn2cnc3c(O)nc(N)nc32)CC(N)=O)c(=O)[nH]c1=O please.
Result string: 7.03

Query string: Which pKd value belongs to Cc1cn(CC(=O)N(CCNC(=O)CN(CCNC(=O)CSCCCCCCSC[C@H]2O[C@@H](O[C@@H]3[C@@H](O)[C@H](N)C[C@H](N)[C@H]3O[C@H]3O[C@H](CN)[C@@H](O)[C@H](O)[C@H]3N)[C@H](O)[C@@H]2O[C@H]2O[C@@H](CN)[C@@H](O)[C@H](O)[C@H]2N)C(=O)Cn2ccc(N)nc2=O)CC(N)=O)c(=O)[nH]c1=O ?
Result string: 6.96

Query string: Look up pKd: NC[C@@H]1O[C@H](O[C@H]2[C@@H](O)[C@H](O[C@@H]3[C@@H](O)[C@H](N)C[C@H](N)[C@H]3O[C@H]3O[C@H](CN)[C@@H](O)[C@H](O)[C@H]3N)O[C@@H]2CSCCCCCCSCC(=O)NCCN(CC(=O)NCCN(CC(N)=O)C(=O)Cn2ccc(N)nc2=O)C(=O)Cn2cnc3c(N)ncnc32)[C@H](N)[C@@H](O)[C@@H]1O
Result string: 7.29

Query string: # pKd lookup, item Cc1cn(CC(=O)N(CCNC(=O)CN(CCNC(=O)CSCCCCCCSC[C@H]2O[C@@H](O[C@@H]3[C@@H](O)[C@H](N)C[C@H](N)[C@H]3O[C@H]3O[C@H](CN)[C@@H](O)[C@H](O)[C@H]3N)[C@H](O)[C@@H]2O[C@H]2O[C@@H](CN)[C@@H](O)[C@H](O)[C@H]2N)C(=O)Cn2cnc3c(N)ncnc32)CC(N)=O)c(=O)[nH]c1=O
Result string: 6.60
